Parameter SGCB cell-surface expression functional score (log10): see the listing below.
B1: library; numbered along this chain (parent)
chain: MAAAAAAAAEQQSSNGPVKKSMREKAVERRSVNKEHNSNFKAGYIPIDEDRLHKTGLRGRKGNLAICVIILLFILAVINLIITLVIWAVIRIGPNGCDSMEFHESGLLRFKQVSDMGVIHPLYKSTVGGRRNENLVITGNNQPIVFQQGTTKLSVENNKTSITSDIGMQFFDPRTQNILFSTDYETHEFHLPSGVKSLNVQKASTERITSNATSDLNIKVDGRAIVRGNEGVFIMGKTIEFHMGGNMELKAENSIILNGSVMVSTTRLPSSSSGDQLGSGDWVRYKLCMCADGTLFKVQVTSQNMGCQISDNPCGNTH

- Variants of: B1
- Protocol Description: SGCB cell-surface expression functional score (HA stain, bin4 vs bin1, normalised to synonymous) (log10 ratio); higher = more cell-surface SGCB (functional)
Readout Label: SGCB cell-surface expression functional score (log10)

| Mutation Notation | Reading |
| --- | --- |
| L249Q | -0.07 |
| G222T | 0.6 |
| T83W | -0.91 |
| N140Q | -0.33 |
| G244Y | -0.22 |
| V300N | -0.77 |
| I239F | -0.45 |
| N33V | 0.23 |
| G231V | -1.02 |
| G56Q | -0.39 |
| I119F | -1.3 |
| Q201L | -0.33 |
| I119L | -0.19 |
| K286G | -0.81 |
| L179P | -0.55 |
| V77T | -0.07 |
| R174N | -1.48 |
| G222V | -0.07 |
| D183I | -1.89 |
| H53K | -0.51 |
| C67H | 0.38 |
| Q148T | 0.08 |
